# Tested on: Staphylococcus aureus
# procedure.text: MIC micro broth dilution assay
# Type: cell-based
# Design: key: stacked score = 100/MIC
# settings: S. aureus
quantity: stacked score activity, 100/MIC, S
Output: the number by itself.

molecule	target	stacked score activity, 100/MIC, S
CCC(C)CN1CCN(CCCC[C@H]2CNC(=N)N2CC2CCC(C)CC2)C1=N (stereo partly shown)	Staphylococcus aureus	0

## Input Identify measured stacked score activity, 100/MIC, S associated with `CCCCCCCN1C(=N)N(CCCC[C@H]2CNC(=N)N2CCC23CC4CC(CC(C4)C2)C3)C[C@@H]1CC1CCCCC1`
## Output 20

## Input Identify measured stacked score activity, 100/MIC, S associated with `CCCCCCCN1C(=N)N(CCCC[C@H]2CNC(=N)N2CCC23CC4CC(CC(C4)C2)C3)C[C@@H]1CCCC`
## Output 33

## Input Identify measured stacked score activity, 100/MIC, S associated with `N=C1NC[C@H](CCCCN2C[C@@H](Cc3cccc4ccccc34)N(CCc3ccc(-c4ccccc4)cc3)C2=N)N1CCC12CC3CC(CC(C3)C1)C2`
## Output 10

====

Reported MIC by item:
# System: Pseudomonas aeruginosa
# procedure.text: MIC micro broth dilution assay
# Type: cell-based
# settings: Pseudomonas aeruginosa, P. aeruginosa isolate 1415

Sample answers from the record:
compound	MIC
CCCCCCCN1C(=N)N(CCCC[C@H]2CNC(=N)N2CCc2cccc(C(F)(F)F)c2)C[C@@H]1CCCC [Compound 1]	5 µM
CCCC[C@H]1CN(CCCC[C@H]2CNC(=N)N2CCc2cccc(C(F)(F)F)c2)C(=N)N1CCCCC1CCCCC1 [Compound 2]	3 µM
CCCCCCCN1C(=N)N(CCCC[C@H]2CNC(=N)N2CCc2cccc(C(F)(F)F)c2)C[C@@H]1CC1CCCCC1 [Compound 7]	3 µM

// below: MIC requested for another compound
## Input Identify measured MIC associated with CCCCCCCN1C(=N)N(CCCC[C@H]2CNC(=N)N2CCCCC2CCCCC2)C[C@@H]1CC1CCCCC1 [Compound 16]
## Output 3 µM

====

# Tested on: Staphylococcus aureus
# procedure.text: MIC micro broth dilution assay
# Type: cell-based
# Design: key: stacked score = 100/MIC
# settings: S. aureus
# Description: For this study we used a representative panel of multi-drug resistant clinical ESKAPE pathogen isolates (Supplemental Table S6).^42 43 3a, 44 45 Gram-positive organisms were grown in tryptic soy broth media (TSB), whilst Gram-negative organisms were grown in lysogeny Broth (LB), as described by us previously. ^43 MIC and MBC determination assays. Broth cultures of ESKAPE strains were grown overnight before being diluted 1 in 1,000 in fresh media. […]
Reported stacked score activity, 100/MIC, S by item:
Output: the number by itself.

Sample answers from the record:
molecule	stacked score activity, 100/MIC, S
N=C1NC[C@H](CCCCN2C[C@H](CC3CCCCC3)N(CCCCC3CCCCC3)C2=N)N1CCCCC1CCCCC1	20
CCC[C@@H]1CN(CCCC[C@H]2CNC(=N)N2CC2CCCCC2)C(=N)N1CC(C)CC (stereo partly shown)	4
CCCCCCCN1C(=N)N(CCCC[C@H]2CNC(=N)N2CCCCC2CCCCC2)C[C@@H]1CC1CCCCC1	20
Cc1cccc(CCN2CCN(CCCC[C@H]3CNC(=N)N3CC3CCC(C)CC3)C2=N)c1 (stereo partly shown)	4
CCCCCCCN1C(=N)NC[C@@H]1CCCCN1CCN(CC(C)CC)C1=N (stereo partly shown)	0
CCCCCCCN1C(=N)N(CCCC[C@H]2CNC(=N)N2CCc2cccc(C(F)(F)F)c2)C[C@@H]1CCCC	50
N=C1NCCN1CCCC[C@H]1CNC(=N)N1CC1CCCCC1	0
CCCCCCCN1C(=N)NC[C@@H]1CCCCN1CCN(CCc2cccc(C)c2)C1=N	4
CCCCCCCN1C(=N)NC[C@@H]1CCCCN1C[C@@H](CCC)N(CCc2cccc(C)c2)C1=N	10
CCCC[C@H]1CN(CCCC[C@H]2CNC(=N)N2CCc2cccc(C(F)(F)F)c2)C(=N)N1CCCCC1CCCCC1	33

## Input Give the observed stacked score activity, 100/MIC, S of CCCCC1CN(CCCCC2CNC(=N)N2CCC23CC4CC(CC(C4)C2)C3)C(=N)N1CCCCC1CCCCC1 (stereo not shown) for Staphylococcus aureus.
## Output 20

## Input Give the observed stacked score activity, 100/MIC, S of `CCCC[C@H]1CN(CCCC[C@H]2CNC(=N)N2CCCCC2CCCCC2)C(=N)N1CCCCC1CCCCC1` for Staphylococcus aureus.
## Output 20

## Input Give the observed stacked score activity, 100/MIC, S of `N=C1NC[C@H](CCCCN2C[C@H](CC3CCCCC3)N(CCc3ccc(-c4ccccc4)cc3)C2=N)N1CCc1cccc(C(F)(F)F)c1` for Staphylococcus aureus.
## Output 20

## Input Give the observed stacked score activity, 100/MIC, S of `CCCCCCCN1C(=N)N(CCCC[C@H]2CNC(=N)N2CCc2cccc(C(F)(F)F)c2)C[C@H]1Cc1cccc2ccccc12` for Staphylococcus aureus.
## Output 25

## Input Give the observed stacked score activity, 100/MIC, S of CC1CCC(CN2C(=N)NC[C@@H]2CCCCN2CCNC2=N)CC1 (stereo partly shown) for Staphylococcus aureus.
## Output 0

## Input Give the observed stacked score activity, 100/MIC, S of CCC[C@@H]1CN(CCCC[C@H]2CNC(=N)N2CC2CCC(C)CC2)C(=N)N1CCc1cccc(C)c1 (stereo partly shown) for Staphylococcus aureus.
## Output 4

====

# System: Acinetobacter baumannii
# procedure.text: MIC micro broth dilution assay
# Format: cell-based
# settings: Acinetobacter baumannii, purified compound, Table 1
Reported MIC by item:
Just the number please, in µM, no unit attached.

Sample answers from the record:
molecular.string	unit.symbol	MIC
CCCCCCCN1C(=N)N(CCCC[C@H]2CNC(=N)N2CCc2cccc(C(F)(F)F)c2)C[C@@H]1CC1CCCCC1	µM	1.52
CCCC[C@H]1CN(CCCC[C@H]2CNC(=N)N2CCc2cccc(C(F)(F)F)c2)C(=N)N1CCCCC1CCCCC1	µM	1.52
CCCCCCCN1C(=N)N(CCCC[C@H]2CNC(=N)N2CCCCC2CCCCC2)C[C@@H]1CC1CCCCC1	µM	1.62

// below: MIC requested for another molecule
## Input Identify measured MIC associated with `CCCCCCCN1C(=N)N(CCCC[C@H]2CNC(=N)N2CCc2cccc(C(F)(F)F)c2)C[C@@H]1CCCC`
## Output 1.63

====

# Tested on: Staphylococcus aureus (USA300 strain FPR3757)
# procedure.text: Murine model of lethal peritonitis
# Type: in vivo, mice
# settings: 2× MIC, I.M., 1 h post-infection, six mice per group
quantity: survival of infected mice over 5 day infection period

molecular.string	result
CCCCCCCN1C(=N)N(CCCC[C@H]2CNC(=N)N2CCc2cccc(C(F)(F)F)c2)C[C@@H]1CC1CCCCC1	1 mouse lost on each of days 2 and 4

====

# Tested on: Acinetobacter baumannii
# procedure.text: MIC micro broth dilution assay
# Assay type: cell-based
# settings: A. baumannii
quantity: stacked score activity, 100/MIC, A
Output: the number by itself.

Sample answers from the record:
compound	stacked score activity, 100/MIC, A
CCCC[C@H]1CN(CCCC[C@H]2CNC(=N)N2CCc2cccc(C(F)(F)F)c2)C(=N)N1CCCCC1CCCCC1	25
CCCCC1CN(CCCCC2CNC(=N)N2CCC23CC4CC(CC(C4)C2)C3)C(=N)N1CCc1ccc(-c2ccccc2)cc1 (stereo not shown)	25
CCC[C@@H]1CN(CCCC[C@H]2CNC(=N)N2CC2CCC(C)CC2)C(=N)N1 (stereo partly shown)	0

## Input Give the observed stacked score activity, 100/MIC, A of `CCCCCCCN1C(=N)N(CCCC[C@H]2CNC(=N)N2CCc2cccc(C(F)(F)F)c2)C[C@H]1Cc1cccc2ccccc12` for Acinetobacter baumannii.
## Output 25

## Input Give the observed stacked score activity, 100/MIC, A of CCC[C@@H]1CN(CCCC[C@H]2CNC(=N)N2CC2CCC(C)CC2)C(=N)N1CC(C)CC (stereo partly shown) for Acinetobacter baumannii.
## Output 0

## Input Give the observed stacked score activity, 100/MIC, A of CCC[C@@H]1CN(CCCC[C@H]2CNC(=N)N2CC2CCCCC2)C(=N)N1CC(C)CC (stereo partly shown) for Acinetobacter baumannii.
## Output 0

## Input Give the observed stacked score activity, 100/MIC, A of `N=C1NC[C@H](CCCCN2C[C@H](CC3CCCCC3)N(CCc3ccc(-c4ccccc4)cc3)C2=N)N1CCC12CC3CC(CC(C3)C1)C2` for Acinetobacter baumannii.
## Output 4

====

# Test system: Staphylococcus aureus
# procedure.text: MIC micro broth dilution assay
# Format: cell-based
# Parameters: key: stacked score = 100/MIC
# settings: S. aureus
# Experimental: For this study we used a representative panel of multi-drug resistant clinical ESKAPE pathogen isolates (Supplemental Table S6).^42 43 3a, 44 45 Gram-positive organisms were grown in tryptic soy broth media (TSB), whilst Gram-negative organisms were grown in lysogeny Broth (LB), as described by us previously. ^43 MIC and MBC determination assays. Broth cultures of ESKAPE strains were grown overnight before being diluted 1 in 1,000 in fresh media. […]
Reported stacked score activity, 100/MIC, S by item:
Output: the number by itself.

Sample answers from the record:
compound	result.number
N=C1NC[C@H](CCCCN2C[C@@H](Cc3cccc4ccccc34)N(CCCCC3CCCCC3)C2=N)N1CCCCC1CCCCC1 [Compound 14]	20
N=C1NC[C@H](CCCCN2C[C@@H](Cc3cccc4ccccc34)N(CCc3ccc(-c4ccccc4)cc3)C2=N)N1CCc1cccc(C(F)(F)F)c1 [Compound 6]	20
CCCCCCCN1C(=N)N(CCCC[C@H]2CNC(=N)N2CCCCC2CCCCC2)C[C@@H]1CCCC [Compound 10]	25
CCCCCCCN1C(=N)NC[C@@H]1CCCCN1CCNC1=N [Compound 28]	0
N=C1NC[C@H](CCCCN2C[C@H](CC3CCCCC3)N(CCc3ccc(-c4ccccc4)cc3)C2=N)N1CCC12CC3CC(CC(C3)C1)C2 [Compound 27]	20

## Input Identify measured stacked score activity, 100/MIC, S associated with CCCCCCCN1C(=N)NC[C@@H]1CCCCN1C[C@@H](CCC)N(CC(C)CC)C1=N (stereo partly shown) [Compound 36]
## Output 4

## Input Identify measured stacked score activity, 100/MIC, S associated with N=C1NC[C@H](CCCCN2C[C@H](CC3CCCCC3)N(CCCCC3CCCCC3)C2=N)N1CCC12CC3CC(CC(C3)C1)C2 [Compound 26]
## Output 20

## Input Identify measured stacked score activity, 100/MIC, S associated with CCC(C)[C@H]1CN(CCCC[C@H]2CNC(=N)N2CC2CCCCC2)C(=N)N1CCc1cccc(C)c1 (stereo partly shown) [Compound 41]
## Output 4

## Input Identify measured stacked score activity, 100/MIC, S associated with N=C1NC[C@H](CCCCN2C[C@@H](Cc3cccc4ccccc34)N(CCCCC3CCCCC3)C2=N)N1CCC12CC3CC(CC(C3)C1)C2 [Compound 23]
## Output 25

## Input Identify measured stacked score activity, 100/MIC, S associated with CCC[C@@H]1CN(CCCC[C@H]2CNC(=N)N2CC2CCC(C)CC2)C(=N)N1 (stereo partly shown) [Compound 52]
## Output 4
